Source: PubChem BioAssay AID743334

Each record here notes measured max activity.
assay: statin-free myotube ATP level counter-assay – cell-based, no simvastatin, luminescence, dry powder, counter-screen for statin myotoxicity suppressor project, dose response (AID 743334); conditions: C2C12 myotubes ATP, CellTiter-Glo luminescence, 48 h; hits give high values
Give the number; % is assumed, so skip it.

Check out these entries, answers already filled in.
O=C(C[C@H]1CC[C@@H]2[C@H](COC[C@H](O)CN2CCC(F)(F)F)O1)NCc1ccc(Oc2ccccc2)cc1	9.67
C[C@H](CO)N1C[C@H](C)[C@H](CN(C)Cc2ccc(C(=O)Nc3ccccc3N)cc2)Oc2ccc(N(C)C)cc2C1=O	-24.5
N#C[C@H]1[C@@H](c2ccc(-c3cccc(F)c3)cc2)[C@H](CO)N1C(=O)NC1CCCC1	9.12

Would you kindly look at the next entry?
Item under review: N#C[C@@H]1[C@@H](c2ccc(C#CC3CCCC3)cc2)[C@H](CO)N1S(=O)(=O)c1ccccc1 . Reported max activity?
-8.85

====

test: statin-free myotube ATP level counter-assay – cell-based, no simvastatin, luminescence, dry powder, counter-screen for statin myotoxicity suppressor project, dose response (AID 743334); conditions: C2C12 myotubes ATP, CellTiter-Glo luminescence, 48 h; hits give high values
max activity reference
Please respond with the number in % and leave the unit unwritten.

N#C[C@H]1N[C@@H](CO)[C@@H]1c1ccc(-c2cccc(F)c2)cc1	7.67

Return reported max activity; argument: C[C@@H]1CN([C@H](C)CO)C(=O)c2cc(NC(=O)Nc3cccc4ccccc34)ccc2O[C@@H]1CN(C)Cc1ccc(C(=O)Nc2ccccc2N)cc1
13.3

Please give the result for N#C[C@@H]1[C@@H](c2ccccc2-c2ccc(F)cc2)[C@H](CO)N1C(=O)NC1CCCC1 too.
-6.02

Do the same for C[C@@H]1CN([C@H](C)CO)C(=O)c2cc(NC(=O)Cc3cn(C)c4ccccc34)ccc2O[C@@H]1CN(C)Cc1ccc(C(=O)Nc2ccccc2N)cc1 please
-0.539

Please do the same for C[C@@H]1CN([C@@H](C)CO)C(=O)c2cc(NC(=O)Cc3cn(C)c4ccccc34)ccc2O[C@@H]1CN(C)Cc1ccc(C(=O)Nc2ccccc2N)cc1 as well.
14.1

How about C[C@H]1CN([C@@H](C)CO)C(=O)Cc2cc(NC(=O)CCCCCC(=O)Nc3ccccc3N)ccc2O[C@H]1CN(C)CC1CCCCC1 ?
11.1

Try this compound next: C[C@H]1CN([C@@H](C)CO)C(=O)c2cc(NC(=O)Cc3cn(C)c4ccccc34)ccc2O[C@H]1CN(C)Cc1ccc(C(=O)Nc2ccccc2N)cc1
5.76

====

experiment: statin-free myotube ATP level counter-assay – cell-based, no simvastatin, luminescence, dry powder, counter-screen for statin myotoxicity suppressor project, dose response (AID 743334); conditions: C2C12 myotubes ATP, CellTiter-Glo luminescence, 48 h; hits give high values
property_name: max activity (%)
Entry rule: numbers only, all in %.

N#C[C@H]1[C@H](c2ccc(C#CCC3CCCC3)cc2)[C@@H](CO)N1C(=O)CN1CCOCC1	-19
C[C@H](CO)N1C[C@H](C)[C@H](CN(C)Cc2ccc(C(=O)Nc3ccccc3N)cc2)Oc2ccc(NC(=O)Cc3cn(C)c4ccccc34)cc2C1=O	12.2
C/C=C/c1ccc([C@H]2[C@@H](CO)N(C(=O)NC3CCCC3)[C@H]2C#N)cc1	-3.18
COc1ccc(-c2ccc([C@@H]3[C@@H](C#N)N(C(=O)NC4CCCC4)[C@H]3CO)cc2)cc1	5.47
N#C[C@@H]1[C@@H](c2ccc(C#Cc3cccnc3)cc2)[C@@H](CO)N1C(=O)C1CCCC1	-10.7

Look at this compound and give its reported max activity. C[C@@H]1CN([C@H](C)CO)C(=O)Cc2cc(NC(=O)CCCCCC(=O)Nc3ccccc3N)ccc2O[C@@H]1CN(C)Cc1ccc(Oc2ccccc2)cc1
-23.3

One more compound: C[C@H](CO)N1C[C@H](C)[C@@H](CN(C)Cc2ccc(C(=O)Nc3ccccc3N)cc2)Oc2ccc(NC(=O)Cc3cn(C)c4ccccc34)cc2C1=O
-9.11
